Target: canine TRPM8 (Canis lupus familiaris)
Sequence (Q1A7N1 1-1104): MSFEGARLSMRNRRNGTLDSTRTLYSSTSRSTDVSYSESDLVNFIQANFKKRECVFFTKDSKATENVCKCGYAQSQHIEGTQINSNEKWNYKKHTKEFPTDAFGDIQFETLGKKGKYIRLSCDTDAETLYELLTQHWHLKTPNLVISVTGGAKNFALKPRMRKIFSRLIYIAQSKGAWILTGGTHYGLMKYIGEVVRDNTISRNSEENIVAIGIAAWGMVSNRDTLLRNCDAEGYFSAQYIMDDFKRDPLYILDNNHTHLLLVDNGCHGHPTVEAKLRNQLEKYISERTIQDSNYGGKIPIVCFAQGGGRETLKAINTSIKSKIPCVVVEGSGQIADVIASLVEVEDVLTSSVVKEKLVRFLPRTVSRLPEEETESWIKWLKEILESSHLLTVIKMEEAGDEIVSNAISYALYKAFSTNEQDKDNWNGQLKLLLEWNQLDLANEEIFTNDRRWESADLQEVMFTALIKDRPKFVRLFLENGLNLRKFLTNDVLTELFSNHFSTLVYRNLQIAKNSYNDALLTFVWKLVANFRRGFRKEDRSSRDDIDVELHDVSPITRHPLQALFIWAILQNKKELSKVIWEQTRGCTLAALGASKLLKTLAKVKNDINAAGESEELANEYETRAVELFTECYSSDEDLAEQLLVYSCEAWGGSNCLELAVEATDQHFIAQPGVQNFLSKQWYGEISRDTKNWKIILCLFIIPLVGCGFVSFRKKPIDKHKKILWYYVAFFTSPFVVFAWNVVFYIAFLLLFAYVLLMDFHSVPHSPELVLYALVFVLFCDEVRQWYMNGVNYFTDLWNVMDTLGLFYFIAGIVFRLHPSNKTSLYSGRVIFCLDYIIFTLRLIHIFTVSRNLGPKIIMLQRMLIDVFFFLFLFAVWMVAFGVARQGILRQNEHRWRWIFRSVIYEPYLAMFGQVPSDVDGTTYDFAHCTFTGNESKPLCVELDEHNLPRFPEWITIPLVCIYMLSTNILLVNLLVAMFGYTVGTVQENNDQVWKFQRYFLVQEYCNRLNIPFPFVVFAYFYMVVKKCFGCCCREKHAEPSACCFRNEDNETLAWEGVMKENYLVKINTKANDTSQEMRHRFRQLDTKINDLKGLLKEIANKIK
Experiment: In Vitro Canine TRPM8 Functional Assay (Ca2+ fluorescence, icilin activation)
Format: cell-based
Conditions: compound at 0.2 μM; canine TRPM8, icilin activation; read-out: % Inh @ 0.2
readout: inhibition at 0.2 µM (%)

Some compounds with known inhibition at 0.2 µM results, for comparison:
Cc1c(N(CCCC(F)(F)F)S(=O)(=O)c2ccc(C(=O)O)cc2)sc2cc(F)ccc12; 95
CC1=C(N(CCC(F)(F)F)S(=O)(=O)c2ccccc2)S(=O)(=O)c2ccccc21; 101
CCS(=O)(=O)N(Cc1ccc(F)c(C(F)(F)F)c1)c1sc2ccccc2c1C#N; 95
CSCCN(c1sc2ccccc2c1C)S(=O)(=O)c1ccccc1; 97
CCCCN(c1sc2ccccc2c1Br)S(=O)(=O)c1ccc(-c2noc(=O)[nH]2)cc1; 94

[1] CC(=O)c1ccc(S(=O)(=O)N(Cc2ccc(F)c(C(F)(F)F)c2)c2sc3ccccc3c2Br)cc1
[2] CCCCN(c1cc2ccccc2s1)S(=O)(=O)c1ccc(N2CCN(C)CC2)cc1
Ask | Record comparison, field inhibition at 0.2 µM: mark the lower of 1 and 2 . Could you answer with the label of the item you picked?
Reply | 2
